Collected melting point values appear next to each entry.

The following molecules have reported results that may help.
O=C(O)c1cccc(-c2nc(-c3ccc(F)c(F)c3)cs2)c1 [Example 71] : 255 to 256 °C
Cc1ccc(-c2csc(-c3cccc(C(=O)O)c3)n2)cc1C [Example 88] : 235 to 236 °C
O=C(O)c1ccc(-c2nc(-c3cc(C(F)(F)F)cc(C(F)(F)F)c3)co2)cc1 [Example 23] : 277 to 279 °C
CCOC(=O)c1cccc(-c2nc(-c3ccc(C)c(C)c3)cs2)c1 [Example 74] : 114 to 115 °C
O=C(O)c1ccc(-c2nc(-c3ccccc3)co2)cc1 [Example 11, 4-(4-phenyl-2-oxazolyl]benzoic acid] : 275 to 276 °C

Exam item: Which melting point value is on record for O=C(O)c1ccc(-c2nc(-c3ccccn3)cs2)cc1 [Example 61] ?
Marked response: > 300 °C

Exam item: Which melting point value is on record for Br.COC(=O)c1ccc(-c2nc(-c3cccnc3)cs2)cc1 [Example 34] ?
Marked response: 241 to 242 °C

Exam item: Which melting point value is on record for O=C(O)c1cccc(-c2nc(-c3cc(Cl)sc3Cl)cs2)c1 [Example 95] ?
Marked response: 241 to 242 °C

Exam item: Which melting point value is on record for COC(=O)c1cccc(-c2nc(-c3ccc(C(F)(F)F)cc3)co2)c1 [Example 21] ?
Marked response: 151 to 152 °C

Exam item: Which melting point value is on record for CCOC(=O)c1cccc(-c2nc(-c3cc(Cl)sc3Cl)cs2)c1 [Example 81] ?
Marked response: 125 to 126 °C

Exam item: Which melting point value is on record for CCOC(=O)c1ccc(-c2cnc(-c3ccc(C(F)(F)F)cc3)o2)cc1 [Example 107] ?
Marked response: 142 to 143 °C

Exam item: Which melting point value is on record for O=C(O)c1ccc(-c2ncc(-c3ccc(Cl)cc3)s2)cc1 [Example 114] ?
Marked response: > 300 °C
